Test system: Nrf2
Assay: Evaluation of Nrf2 activation ability (Nrf2d-LacZ / Keap1 HEK293 reporter, Beta-Glo luminescence)
Assay type: cell-based, human
Settings: rated A/B/C, Pharmacological Test Example 1
Protocol: HEK293 cells constantly expressing Nrf2d-LacZ (human Nrf2 degron region fused to LacZ; Hirotsu et al, Genes to Cell, Vol. 16, pp. 406-415 (2011)) and human Keap1 were seeded 7,000 cells/27 μl/well on 384-well plates (Corning 384 Well Flat Clear Bottom White Polystyrene TC-Treated Microplates, Cat. #3707), and cultured overnight at 5% CO2, 37° C. in DMEM medium containing 10% FBS, 100 U/mL penicillin and 100 μg/mL streptomycin. […]
pEC50: −log10 of the molar value.

- Compound: "[O-][s+]1nc(O)cc1-n1ncc2cc(-c3cnc(C4CC4)cn3)ccc21 (stereo not drawn) [Example 122]"
  Assayed Target: "Nrf2"
  pEC50: "5.30 to 6.00"
- Compound: "[O-][s+]1nc(O)cc1-n1cc2c(n1)CN(Cc1cccc(Oc3ccccc3)c1)C2 (stereo not drawn) [Example 277]"
  Assayed Target: "Nrf2"
  pEC50: "5.30 to 6.00"
- Compound: "[O-][s+]1nc(O)cc1-n1ncc2cc(-c3cnn4cccnc34)ccc21 (stereo not drawn) [Example 225]"
  Assayed Target: "Nrf2"
  pEC50: "> 6.00"
- Compound: "[O-][s+]1nc(O)cc1-n1ncc2cc(-c3cnc4c(c3)OCCN4CC3CCC3)ccc21 (stereo not drawn) [Example 162]"
  Assayed Target: "Nrf2"
  pEC50: "> 6.00"
- Compound: "[O-][s+]1nc(O)cc1-n1ncc2cc(C(F)(F)F)ccc21 (stereo not drawn) [Example 14]"
  Assayed Target: "Nrf2"
  pEC50: "> 6.00"
- Compound: "CC(C)N1CCOc2cc(-c3ccc4c(cnn4-c4cc(O)n[s+]4[O-])c3)cnc21 (stereo not drawn) [Example 8]"
  Assayed Target: "Nrf2"
  pEC50: "> 6.00"
- Compound: "[O-][s+]1nc(O)cc1-n1ncc2c3ccccc3ncc21 (stereo not drawn) [Example 239]"
  Assayed Target: "Nrf2"
  pEC50: "> 6.00"
- Compound: "COc1cc(-c2ccc(N3CCCC3)nc2)cc2c1cnn2-c1cc(O)n[s+]1[O-] (stereo not drawn) [Example 193]"
  Assayed Target: "Nrf2"
  pEC50: "> 6.00"
- Compound: "CN1CCOc2cc(-c3ccc4c(c3)c(C3CC3)nn4-c3cc(O)n[s+]3[O-])cnc21 (stereo not drawn) [Example 216]"
  Assayed Target: "Nrf2"
  pEC50: "5.30 to 6.00"
- Compound: "[O-][s+]1nc(O)cc1-n1ncc2cc(-c3cnc4c(c3)OCCN4C3CC3)ccc21 (stereo not drawn) [Example 149]"
  Assayed Target: "Nrf2"
  pEC50: "> 6.00"
- Compound: "COc1cc(-c2ccc(C3CC3)nc2)cc2c1cnn2-c1cc(O)n[s+]1[O-] (stereo not drawn) [Example 203]"
  Assayed Target: "Nrf2"
  pEC50: "> 6.00"
- Compound: "[O-][s+]1nc(O)cc1-n1cc2c(n1)CN(CC1CCCCC1)C2 (single isomer, unassigned) [Example 275]"
  Assayed Target: "Nrf2"
  pEC50: "5.30 to 6.00"
- Compound: "COc1cc(-c2ccc3cnn(-c4cc(O)n[s+]4[O-])c3c2)ccn1 (stereo not drawn) [Example 110]"
  Assayed Target: "Nrf2"
  pEC50: "5.30 to 6.00"
- Compound: "CC1(C)COc2cc(-c3ccc4c(cnn4-c4cc(O)n[s+]4[O-])c3)cnc2N1 (stereo not drawn) [Example 217]"
  Assayed Target: "Nrf2"
  pEC50: "> 6.00"
- Compound: "CN1c2ncc(-c3ccc4c(cnn4-c4cc(O)n[s+]4[O-])c3)cc2OCC1(C)C (stereo not drawn) [Example 213]"
  Assayed Target: "Nrf2"
  pEC50: "> 6.00"
- Compound: "CN1CCOc2cc(-c3ccc4c(c3)c(Cl)nn4-c3cc(O)n[s+]3[O-])cnc21 (stereo not drawn) [Example 169]"
  Assayed Target: "Nrf2"
  pEC50: "> 6.00"
- Compound: "COc1cc2c(cnn2-c2cc(O)n[s+]2[O-])cc1C1=CCN(C(=O)OC(C)(C)C)CC1 (stereo not drawn) [Example 71]"
  Assayed Target: "Nrf2"
  pEC50: "5.30 to 6.00"
- Compound: "[O-][s+]1nc(O)cc1-n1ncc2cc(-c3ccc(Cl)cn3)ccc21 (stereo not drawn) [Example 121]"
  Assayed Target: "Nrf2"
  pEC50: "5.30 to 6.00"
- Compound: "COc1cc(-c2cnc3c(c2)OCCN3C)cc2c1cnn2-c1cc(O)n[s+]1[O-] (stereo not drawn) [Example 192]"
  Assayed Target: "Nrf2"
  pEC50: "> 6.00"
- Compound: "Cn1cc(-c2cccc3c2cnn3-c2cc(O)n[s+]2[O-])cn1 (stereo not drawn) [Example 101]"
  Assayed Target: "Nrf2"
  pEC50: "5.30 to 6.00"
- Compound: "[O-][s+]1nc(O)cc1-n1ncc2cc(-c3ccc(C4CC4)nc3)ccc21 (stereo not drawn) [Example 46]"
  Assayed Target: "Nrf2"
  pEC50: "> 6.00"
